Cited source: patent US20230089867A1

# Tested system: human PCSK9 (Homo sapiens, UniProt Q8NBP7)
# Sequence (Q8NBP7 153-692): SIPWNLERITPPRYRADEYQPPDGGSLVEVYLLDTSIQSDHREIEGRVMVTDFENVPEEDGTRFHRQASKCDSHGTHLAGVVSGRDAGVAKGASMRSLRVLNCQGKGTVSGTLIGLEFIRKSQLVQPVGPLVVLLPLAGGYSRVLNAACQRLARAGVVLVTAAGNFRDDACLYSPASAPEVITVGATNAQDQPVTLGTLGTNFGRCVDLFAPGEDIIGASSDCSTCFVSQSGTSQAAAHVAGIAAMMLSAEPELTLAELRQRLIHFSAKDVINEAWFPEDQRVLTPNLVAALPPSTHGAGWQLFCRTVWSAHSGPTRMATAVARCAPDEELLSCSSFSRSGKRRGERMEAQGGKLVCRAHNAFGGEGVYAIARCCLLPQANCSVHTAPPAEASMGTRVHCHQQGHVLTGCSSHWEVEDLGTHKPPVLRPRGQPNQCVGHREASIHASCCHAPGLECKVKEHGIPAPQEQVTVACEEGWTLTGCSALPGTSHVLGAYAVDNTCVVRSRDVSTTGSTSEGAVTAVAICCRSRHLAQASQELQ
# Sequence (Q8NBP7 31-152 partner limits assumed): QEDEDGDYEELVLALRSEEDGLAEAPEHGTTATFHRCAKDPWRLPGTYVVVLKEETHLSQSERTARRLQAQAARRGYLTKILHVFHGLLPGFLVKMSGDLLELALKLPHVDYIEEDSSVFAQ
# Protocol notes: PCSK9 ligand binding TR-FRET assay (interference with binding of human PCSK9 to human LDLR)
# Assay conditions: TR-FRET; human PCSK9 Alexa Fluor 647 / human LDLR extracellular domain-Europium Kryptate; read-out: PCSK9 FRET Assay IC50
Assay metric: IC50 (nM)

molecule="COC[C@@H]1NC(=O)[C@H](C)N(Cc2ccc(Cl)cc2Oc2ccc(-c3cnc4n3CCN(C(=O)C3CCOC3)C4)cc2)C(=O)C[C@@H](Cc2ccccc2)C(=O)N(C)[C@@H](C)CNC(=O)C[C@H](Cc2ccc(Cl)cc2)N(C)C1=O (stereo partly shown) [Compound 133]" observed_result=5.8
molecule="COC[C@@H]1NC(=O)[C@H](CCC(=O)N2CCOCC2)N(Cc2ccc(Cl)cc2Oc2ccc(-c3cnc(CN(C)C)n3C)cc2)C(=O)C[C@@H](Cc2ccccc2)C(=O)N(C)[C@H]2CCCC[C@@H]2NC(=O)C[C@H](Cc2ccc(Cl)cc2)N(C)C1=O [Compound 93]" observed_result=6.3
molecule="COC[C@@H]1NC(=O)[C@H](CCCN(C)C)N(Cc2ccc(Cl)cc2Oc2ccc(-c3cnc(CN(C)C)n3C)cc2)C(=O)C[C@@H](Cc2ccccc2)C(=O)N(C)[C@@H](C)[C@H](C)NC(=O)C[C@H](Cc2ccc(Cl)cc2)N(C)C1=O [Compound 90]" observed_result=2.1
molecule="COC[C@@H]1NC(=O)[C@H](CCCN(C)C)N(Cc2ccc(Cl)cc2Oc2ccc(-c3cnc(CN4CCCC4)n3C)cc2)C(=O)C[C@@H](Cc2ccccc2)C(=O)N(C)[C@H]2CCCC[C@@H]2NC(=O)C[C@H](Cc2ccc(Cl)cc2)N(C)C1=O [Compound 285]" observed_result=2.1

---

# Tested system: human PCSK9 (Homo sapiens, UniProt Q8NBP7)
# Protocol notes: PCSK9 ligand binding TR-FRET assay (interference with binding of human PCSK9 to human LDLR)
# Assay conditions: PCSK9 FRET assay, efficacy (Amax); 100% = 1 uM unlabeled human PCSK9, 0% = DMSO
Assay metric: Max % inhibition (%)

compound=COC[C@@H]1NC(=O)[C@H](C)N(Cc2c(F)cc(Cl)cc2Oc2ccc(-c3cnc(CN4CCCC4)n3C)cc2)C(=O)C[C@@H](Cc2ccccc2)C(=O)N(C)[C@@H](C)CNC(=O)C[C@H](Cc2ccc(Cl)cc2)N(C)C1=O units_symbol=% observed_result=95.86
compound=CCOC(=O)CCCN(CCCC(=O)OCC)CCC[C@H]1C(=O)N[C@@H](COC)C(=O)N(C)[C@@H](Cc2ccc(Cl)cc2)CC(=O)N[C@H]2CCCC[C@@H]2N(C)C(=O)[C@H](Cc2ccccc2)CC(=O)N1Cc1ccc(Cl)cc1Oc1ccc(-c2cnc(CN(C)C)n2C)cc1 units_symbol=% observed_result=93.76
compound="COC[C@@H]1NC(=O)C(C)N(Cc2ccc(Cl)cc2Oc2ccc(-c3cnc(CN(C)C)n3C)cc2)C(=O)C[C@@H](C)C(=O)N(C)[C@@H](CC(C)C)CNC(=O)C[C@H](Cc2ccc(Cl)cc2)N(C)C1=O (stereo partly shown)" units_symbol=% observed_result=54.06
compound=CCNC(=O)c1ncn(-c2ccc(Oc3cc(Cl)ccc3CN3C(=O)C[C@@H](Cc4ccccc4)C(=O)N(C)[C@@H](C)CNC(=O)C[C@H](Cc4ccc(Cl)cc4)N(C)C(=O)[C@H](COC)NC(=O)[C@@H]3C)cc2)c1C units_symbol=% observed_result=80.79

---

# Tested system: human PCSK9 (Homo sapiens, UniProt Q8NBP7)
# Protocol notes: PCSK9 ligand binding TR-FRET assay (interference with binding of human PCSK9 to human LDLR)
# Assay conditions: PCSK9 FRET assay, efficacy (Amax); 100% = 1 uM unlabeled human PCSK9, 0% = DMSO
// Max % inhibition lookup, one value per entry
Assay metric: Max % inhibition (%)

compound=COC[C@@H]1NC(=O)[C@H](CCCN(C)C)N(Cc2ccc(Cl)cc2Oc2ccc(-c3cnc(CN(C)C)n3C)cc2)C(=O)C[C@@H](Cc2ccccc2)C(=O)N(C)[C@@H](C)[C@H](C)NC(=O)C[C@H](Cc2ccc(Cl)cc2)N(C)C1=O units_symbol=% observed_result=101.52
compound=COC[C@@H]1NC(=O)[C@H](C)N(Cc2ccc(C)cc2Oc2ccc(-c3cnc(CN(C)C)n3C)cc2)C(=O)C[C@@H](Cc2ccccc2)C(=O)N(C)[C@@H](C)[C@H](C)NC(=O)C[C@H](Cc2ccc(Cl)cc2)N(C)C1=O units_symbol=% observed_result=101.56
compound="COC[C@@H]1NC(=O)[C@H](C)N(Cc2ccc(Cl)cc2Oc2ccc(-c3cnc(CN(C)C)n3C)cc2)C(=O)CC(Cn2ccccc2=O)C(=O)N(C)[C@H]2CCCC[C@@H]2NC(=O)C[C@H](Cc2ccc(Cl)cc2)N(C)C1=O (stereo partly shown) [Compound 275]" units_symbol=% observed_result=102.47
compound=COC[C@@H]1NC(=O)[C@H](C)N(Cc2ccc(Cl)cc2Oc2ccc(-c3cnc(CN(C)C)n3C)cc2)C(=O)C[C@@H](C)C(=O)N(C)[C@@H](C)CNC(=O)C[C@H](Cc2ccc(Cl)cc2)N(C)C1=O units_symbol=% observed_result=92.62
compound="COC[C@@H]1NC(=O)[C@H](C)N(Cc2ccc(Cl)cc2Oc2ccc(-c3cnc(C4CCCN4C)n3C)cc2)C(=O)C[C@@H](Cc2ccccc2)C(=O)N(C)[C@@H](C)CNC(=O)C[C@H](Cc2ccc(Cl)cc2)N(C)C1=O (stereo partly shown)" units_symbol=% observed_result=102.04
compound=COC[C@@H]1NC(=O)[C@@H](COC)N(Cc2ccc(Cl)cc2Oc2ccc(-c3cnc(CN(C)C)n3C)cc2)C(=O)C[C@@H](Cc2ccccc2)C(=O)N(C)[C@H]2CCCC[C@@H]2NC(=O)C[C@H](Cc2ccc(Cl)cc2)N(C)C1=O units_symbol=% observed_result=101.12
compound=COC[C@@H]1NC(=O)[C@H](C)N(Cc2ccc(Cl)cc2Oc2ccc(-c3cnc(CN(C)C)n3C)cc2)C(=O)C[C@@H](Cc2ccon2)C(=O)N(C)[C@H]2CCCC[C@@H]2NC(=O)C[C@H](Cc2ccc(Cl)cc2)N(C)C1=O units_symbol=% observed_result=86.12
compound=COC[C@@H]1NC(=O)[C@H](C)N(Cc2ccc(Cl)cc2Oc2ccc(-c3cnc(CN4CCCC4)n3C)cc2)C(=O)C[C@@H](Cc2ccccc2)C(=O)N(C)[C@@H](C)[C@H](C)NC(=O)C[C@H](Cc2ccc(Cl)cc2)N(C)C1=O units_symbol=% observed_result=98.27
compound=COC[C@@H]1NC(=O)[C@H](CO)N(Cc2ccc(Cl)cc2Oc2ccc(-c3cnc(CN(C)C)n3C)cc2)C(=O)C[C@@H](Cc2ccccc2)C(=O)N(C)[C@@H](C)CNC(=O)C[C@H](Cc2ccc(Cl)cc2)N(C)C1=O units_symbol=% observed_result=105.07
compound=COC[C@@H]1NC(=O)[C@H](C)N(Cc2ccc(OC(F)F)cc2Oc2ccc(-c3cnc(CN(C)C)n3C)cc2)C(=O)C[C@@H](Cc2ccccc2)C(=O)N(C)[C@@H](C)CNC(=O)C[C@H](Cc2ccc(Cl)cc2)N(C)C1=O units_symbol=% observed_result=103.76
compound=COC[C@@H]1NC(=O)[C@H](C)N(Cc2ccc(Cl)cc2Oc2ccc(-c3cnc(CN(C)C)n3C)cc2)C(=O)C[C@@H](Cc2c(F)ccc(F)c2F)C(=O)N(C)[C@@H](C)CNC(=O)C[C@H](Cc2ccc(Cl)cc2)N(C)C1=O units_symbol=% observed_result=98.94
compound=COC[C@@H]1NC(=O)[C@H](C)N(Cc2ccc(Cl)cc2Oc2ccc(-c3cnc(CN(C)C)n3C)cc2)C(=O)C[C@@H](Cc2cccnc2)C(=O)N(C)[C@H]2CCCC[C@@H]2NC(=O)C[C@H](Cc2ccc(Cl)cc2)N(C)C1=O units_symbol=% observed_result=100.09
compound=C[C@H]1CNC(=O)C[C@H](Cc2ccc(Cl)cc2)N(C)C(=O)[C@H](CO)NC(=O)[C@H](C)N(Cc2ccc(Cl)cc2Oc2ccc3c(c2)C(=O)N(C2CCNCC2)C3)C(=O)C[C@@H](Cc2ccccc2)C(=O)N1C units_symbol=% observed_result=60.93
compound=COC[C@@H]1NC(=O)[C@H](C)N(Cc2ccc(Cl)cc2Oc2ccc(-c3cnc(CN(C)C)n3C)cc2)C(=O)C[C@@H](Cc2ccccn2)C(=O)N(C)[C@H]2CCCC[C@@H]2NC(=O)C[C@H](Cc2ccc(Cl)cc2)N(C)C1=O units_symbol=% observed_result=98.50
compound=COC[C@@H]1NC(=O)[C@H](C)N(Cc2ccc(Cl)cc2Oc2ccc(-c3cnc4c(c3)CNCC4)cc2)C(=O)C[C@@H](Cc2ccccc2)C(=O)N(C)[C@@H](C)CNC(=O)C[C@H](Cc2ccc(Cl)cc2)N(C)C1=O units_symbol=% observed_result=72.72
compound=COC[C@@H]1NC(=O)[C@H](C)N(Cc2ccc(Cl)cc2Oc2ccc(-c3cnc(CN4CC[C@@H](F)C4)n3C)cc2)C(=O)C[C@@H](Cc2ccccc2)C(=O)N(C)[C@@H](C)CNC(=O)C[C@H](Cc2ccc(Cl)cc2)N(C)C1=O units_symbol=% observed_result=82.23
